- Test system: SMN protein
- Test name: cellular SMN ELISA (SMN protein elevation) in myoblast cell line from SMNdelta7 mouse model
- Assay type: cell-based
- Condition context: Biological Example 1; SMN ELISA, SMNdelta7 mouse myoblasts, 24 hours compound treatment; read-out: SMN Activity (EC50)
pEC50: −log10 of the molar value.
Property: pEC50

>>> measured_result("Cc1cc(Cl)c2cc(-c3ccc(N(C)C4CC(C)(C)NC(C)(C)C4)nn3)c(O)cc2n1")
6.55
>>> measured_result("CN(c1ccc(-c2cc3c(=O)n(C)ccc3cc2O)nn1)C1CC(C)(C)NC(C)(C)C1")
8.52
>>> measured_result("CN(c1ccc(-c2cc3cnc(-c4ccccc4)cc3cc2O)nn1)C1CC(C)(C)NC(C)(C)C1")
6.55
>>> measured_result("N#Cc1ccc2cc(-c3ccc(N4CCNCC4)nn3)c(O)cc2n1")
6.40
>>> measured_result("CN1C[C@@H]2CN(c3ccc(-c4cc5cccnc5cc4O)nn3)C[C@@H]2C1")
6.59
>>> measured_result("CN(c1ccc(-c2cc3cc(Cl)cnc3cc2O)nn1)C1CC(C)(C)NC(C)(C)C1")
7.85
>>> measured_result("CN(c1ccc(-c2cc3nc(C#N)ccc3cc2O)nn1)C1CC(C)(C)NC(C)(C)C1")
8.22
>>> measured_result("CN(c1ccc(-c2cc3cnccc3cc2O)nn1)C1CC(C)(C)N(C)C(C)(C)C1")
7.15
>>> measured_result("Cc1cnc2cc(O)c(-c3ccc(N(C)C4CC(C)(C)NC(C)(C)C4)nn3)cc2n1")
8.05
>>> measured_result("CN(c1ccc(-c2cc3ccncc3cc2O)nn1)C1CC(C)(C)NC(C)(C)C1")
8.22
>>> measured_result("Cc1cc(C2CCOCC2)c2cc(-c3ccc(N(C)C4CC(C)(C)NC(C)(C)C4)nn3)c(O)cc2n1")
6.54
>>> measured_result("Cc1nccc2cc(O)c(-c3ccc(N(C)C4CC(C)(C)NC(C)(C)C4)nn3)cc12")
8.05
>>> measured_result("Cc1cnc2cc(-c3ccc(N(C)C4CC(C)(C)NC(C)(C)C4)nn3)c(O)cc2n1")
7.80
>>> measured_result("CCOc1nccc2cc(O)c(-c3ccc(N(C)C4CC(C)(C)NC(C)(C)C4)nn3)cc12")
7.89
>>> measured_result("CN(c1ccc(-c2cc3cc(C#N)cnc3cc2O)nn1)C1CC(C)(C)NC(C)(C)C1")
8.10
>>> measured_result("CN(c1ccc(-c2cc3c(Cl)ccnc3cc2O)nn1)C1CC(C)(C)NC(C)(C)C1")
7.52
>>> measured_result("CN(c1ccc(-c2cc3cccnc3cc2O)nn1)C1CC(C)(C)N(C)C(C)(C)C1")
6.47
>>> measured_result("Cc1cc(C#N)c2cc(-c3ccc(N(C)C4CC(C)(C)NC(C)(C)C4)nn3)c(O)cc2n1")
7.32
>>> measured_result("CN(c1ccc(-c2cc3ccc(=O)[nH]c3cc2O)nn1)C1CC(C)(C)NC(C)(C)C1")
7.52
>>> measured_result("CN(c1ccc(-c2cc3cncnc3cc2O)nn1)C1CC(C)(C)NC(C)(C)C1")
7.39
>>> measured_result("CN(C)c1ccnc2cc(O)c(-c3ccc(N(C)C4CC(C)(C)NC(C)(C)C4)nn3)cc12")
7.22
>>> measured_result("CN(c1ccc(-c2cc3cc(O)cnc3cc2O)nn1)C1CC(C)(C)NC(C)(C)C1")
6.52
>>> measured_result("N#Cc1ccc2cc(O)c(-c3ccc(N4CCNCC4)nn3)cc2n1")
7.34
>>> measured_result("CN(c1ccc(-c2cc3nccnc3cc2O)nn1)C1CC(C)(C)NC(C)(C)C1")
8.05
>>> measured_result("CN(c1ccc(-c2cc3ccc(C(N)=O)nc3cc2O)nn1)C1CC(C)(C)NC(C)(C)C1")
9.00
>>> measured_result("COc1cc(C)nc2cc(O)c(-c3ccc(N(C)C4CC(C)(C)NC(C)(C)C4)nn3)cc12")
8.00
>>> measured_result("CN(c1ccc(-c2cc3ncc(Br)cc3cc2O)nn1)C1CC(C)(C)NC(C)(C)C1")
7.72
>>> measured_result("CCc1cnc2cc(O)c(-c3ccc(N(C)C4CC(C)(C)NC(C)(C)C4)nn3)cc2c1")
7.07
>>> measured_result("Oc1cc2cccnc2cc1-c1ccc(C2=CCNCC2)nn1")
6.81
>>> measured_result("Cc1cc(-c2cnn(C)c2)c2cc(-c3ccc(N(C)C4CC(C)(C)NC(C)(C)C4)nn3)c(O)cc2n1")
7.22
>>> measured_result("CN(c1ccc(-c2cc3c(cc2O)c(=O)ccn3C)nn1)C1CC(C)(C)NC(C)(C)C1")
6.16
>>> measured_result("CN(c1ccc(-c2cc3c(O)nccc3cc2O)nn1)C1CC(C)(C)NC(C)(C)C1")
8.10
